Give measured Growth Rate for each item. Keep answers brief.
# Test system: Fibroblast
# ASSAY: Incucyte cell viability with human fibroblast; also: filed as whole numbers so only -1 and 0 and 1 occur
# Type: toxicity, cell-based
# CONDITION NOTES: 12 h, 10 µM, compound concentration 10 uM, replicate number 2, timepoint 12 hours
Numbers only.

Field: example entries. Status: answers known.
[
  {
    "COMPOUND": "COc1cccc(CNC(=O)c2nc3scc(COCc4ccc(C(=O)O)cc4)c3c(=O)[nH]2)c1 [T-26c]",
    "TARGET SYSTEM": "Fibroblast",
    "OBS VALUE": 0
  },
  {
    "COMPOUND": "COc1ncc(F)cc1CNc1ccc(Cc2c[nH]c3ncc(C)cc23)c(F)n1",
    "TARGET SYSTEM": "Fibroblast",
    "OBS VALUE": 0
  },
  {
    "COMPOUND": "COc1cccc(-c2c(C)n(Cc3c(F)cccc3C(F)(F)F)c(=O)n(C[C@H](NCCCC(=O)[O-])c3ccccc3)c2=O)c1F.[Na+] [ELAGOLIX SODIUM]",
    "TARGET SYSTEM": "Fibroblast",
    "OBS VALUE": 0
  },
  {
    "COMPOUND": "CCOC(=O)c1ncn2c1CN(C)C(=O)c1cc(F)ccc1-2",
    "TARGET SYSTEM": "Fibroblast",
    "OBS VALUE": 0
  },
  {
    "COMPOUND": "Cc1c(C2=CCN(C(=O)N(C)C(C)C)CC2)nnn1-c1cccnc1F",
    "TARGET SYSTEM": "Fibroblast",
    "OBS VALUE": 1
  },
  {
    "COMPOUND": "CC(/C=C1\\SC(=S)N(CCCC(=O)Nc2ccc(C(=O)O)c(O)c2)C1=O)=C\\c1ccccc1",
    "TARGET SYSTEM": "Fibroblast",
    "OBS VALUE": 0
  }
]

Can you give me Growth Rate for all of these, one by one?
1. NC(=O)[C@@H]1CCCN1C(=O)[C@H](Cc1cnc[nH]1)NC(=O)[C@@H]1CCC(=O)N1
2. CCc1cc(Nc2nccc(-c3c(-c4ccc(OC)c(C(=O)Nc5c(F)cccc5F)c4)nc4ccccn34)n2)c(OC)cc1N1CCC(N2CCN(S(C)(=O)=O)CC2)CC1
3. CC(C)c1cc(Nc2nc(N3CCC[C@H](N)C3)ncc2C(N)=O)cc(C(C)C)n1
4. CN(CCOc1ccc(CC2SC(=O)NC2=O)cc1)c1ccccn1 (stereo not given)
5. O=C(N1CCS(=O)(=O)CC1)N1C[C@H](c2ccc(OC(F)(F)F)cc2)C[C@H](c2nc(C3CC3)no2)C1
6. COc1cc(OC)c(NC(=O)c2ccc(Cc3cc4c(cc3C)C(C)(C)CCC4(C)C)o2)c(OC)c1
7. Cc1cc(OCC(=O)O)cc(C)c1Cc1ccc(O)c(C(C)C)c1

1
0
0
0
0
1
0

Can you give me Growth Rate for all of these, one by one?
1. OCCn1cc(-c2ccc3c(c2)CCC3=NO)c(-c2ccncc2)n1
2. CC(C)NCC(O)COc1cccc2ccccc12.Cl (stereo not given) [PROPRANOLOL HYDROCHLORIDE]

1: 0; 2: 0
